# System: L1210 leukemia ip in BDF1 mice, survival T/C
# procedureText: NCI In Vivo Anticancer Drug Screen. Data for tumor model L1210 Leukemia (intraperitoneal) in B6D2F1 (BDF1) mice
# experimentalParameters: endpoint: mean survival time; dose: 200.0 mg/kg/injection; schedule: Q01DX001 (ip); vehicle: carboxymethylcellulose (CMC); higher = longer survival
Inconclusive results and toxic doses are left out.

[
  {
    "compound": "Cc1ccc(S(=O)(=O)N2c3ccccc3-c3ccccc3C(=O)C2Br)cc1 (centres undefined)",
    "T/C": "105 % of control"
  },
  {
    "compound": "CCCCCCCCCC(C)(O)C#CC(C)(O)CCCCCCCCC (centres undefined)",
    "T/C": "91 % of control"
  },
  {
    "compound": "N#Cc1ccc2c(c1)Cc1cc([N+](=O)[O-])ccc1-2",
    "T/C": "105 % of control"
  },
  {
    "compound": "N#CC(Nc1c(N)nc(-c2ccccc2)nc1N)c1ccc(N(CCCl)CCCl)cc1 (centres undefined)",
    "T/C": "100 % of control"
  },
  {
    "compound": "C[N+]1(CCCl)CC[N+](C)(CCCl)CC1 (centres undefined)",
    "T/C": "105 % of control"
  },
  {
    "compound": "Nn1nnc(-c2ccccc2)c1-c1ccccc1",
    "T/C": "100 % of control"
  },
  {
    "compound": "CCC1CC2c3cc(OC)c(OC)cc3CCN2CC1(O)Cc1nccc2c1CCCC2 (centres undefined)",
    "T/C": "103 % of control"
  },
  {
    "compound": "Nc1nc(N)nc(Cc2nc(N)nc(N)n2)n1",
    "T/C": "92 % of control"
  },
  {
    "compound": "c1ccc2c(c1)-c1ccccc1-2",
    "T/C": "97 % of control"
  }
]

---

# Test system: L1210 leukemia ip in BDF1 mice, survival T/C
# procedureText: NCI In Vivo Anticancer Drug Screen. Data for tumor model L1210 Leukemia (intraperitoneal) in B6D2F1 (BDF1) mice
# experimentalParameters: endpoint: mean survival time; dose: 100.0 mg/kg/injection; schedule: Q01DX009 (ip); vehicle: Klucel (hydroxypropylcellulose) (HPC); higher = longer survival
Toxic doses and inconclusive results are not listed.
Entries and their measured T/C follow.

[
  {
    "smilesRecord": "CC(=O)CC(C)=Nc1cccc(Cl)c1",
    "T/C": "92 % of control"
  },
  {
    "smilesRecord": "O=C(Nc1ccc(Br)cc1)Nc1ccccc1F",
    "T/C": "98 % of control"
  },
  {
    "smilesRecord": "COc1ccc(OC)c(NC(=O)SCCSC(=O)Nc2cc(OC)ccc2OC)c1",
    "T/C": "92 % of control"
  },
  {
    "smilesRecord": "COc1ccc(/C=C/c2cnccn2)cc1OC",
    "T/C": "101 % of control"
  },
  {
    "smilesRecord": "NC(=O)c1ccccn1",
    "T/C": "95 % of control"
  },
  {
    "smilesRecord": "Cc1cc(C(=O)O)c2cc(Br)ccc2n1",
    "T/C": "96 % of control"
  },
  {
    "smilesRecord": "CC(=O)O/N=C1\\C(C)=[N+]([O-])[N+]([O-])=C1c1ccccc1",
    "T/C": "87 % of control"
  },
  {
    "smilesRecord": "COc1ccccc1NC(=O)NCCCCCCNC(=O)Nc1ccccc1OC",
    "T/C": "89 % of control"
  },
  {
    "smilesRecord": "CC(=O)c1cccc(NC(=O)Nc2cccc(O)c2)c1",
    "T/C": "101 % of control"
  },
  {
    "smilesRecord": "COC(=O)c1cc(Cl)ccc1OCC(=O)Nc1ccc([N+](=O)[O-])cc1",
    "T/C": "98 % of control"
  },
  {
    "smilesRecord": "CCOC(=O)c1ccc(NC(=O)C2CC2)cc1",
    "T/C": "113 % of control"
  },
  {
    "smilesRecord": "O=C(Nc1ccccc1)OCC#CCOC(=O)Nc1ccccc1",
    "T/C": "97 % of control"
  }
]

---

# Tested on: L1210 leukemia ip in BDF1 mice, survival T/C
# procedureText: NCI In Vivo Anticancer Drug Screen. Data for tumor model L1210 Leukemia (intraperitoneal) in B6D2F1 (BDF1) mice
# experimentalParameters: endpoint: mean survival time; dose: 200.0 mg/kg/injection; schedule: Q04DX003 (ip); vehicle: saline with Tween-80; higher = longer survival
Inconclusive results and toxic doses are left out.
Entries and their measured T/C follow.
observedProperty: T/C

[
  {
    "compound": "Nc1cccc2c1C(=O)c1cccc(Cl)c1C2=O",
    "systemUnderTest": "L1210 leukemia ip in BDF1 mice, survival T/C",
    "result": "101 % of control"
  },
  {
    "compound": "O=C(O)c1ccccc1NCc1cc(=O)[nH]c(=O)[nH]1",
    "systemUnderTest": "L1210 leukemia ip in BDF1 mice, survival T/C",
    "result": "98 % of control"
  },
  {
    "compound": "Cc1[nH]ncc1Br",
    "systemUnderTest": "L1210 leukemia ip in BDF1 mice, survival T/C",
    "result": "92 % of control"
  },
  {
    "compound": "CCOC(=O)c1ccc(N2C(=O)C=CC2=O)cc1",
    "systemUnderTest": "L1210 leukemia ip in BDF1 mice, survival T/C",
    "result": "98 % of control"
  },
  {
    "compound": "Cc1ccc(S(=O)(=O)N/N=C(/c2ccccc2)c2cccs2)cc1",
    "systemUnderTest": "L1210 leukemia ip in BDF1 mice, survival T/C",
    "result": "96 % of control"
  },
  {
    "compound": "O=[N+]([O-])c1ccc2c(c1)c(-c1cccc(-c3ccccc3)c1)nc1ccccc12",
    "systemUnderTest": "L1210 leukemia ip in BDF1 mice, survival T/C",
    "result": "88 % of control"
  },
  {
    "compound": "C#CC1(OC(=O)NS(=O)(=O)c2ccc(C)cc2)CCCCC1",
    "systemUnderTest": "L1210 leukemia ip in BDF1 mice, survival T/C",
    "result": "95 % of control"
  },
  {
    "compound": "CC(C)(c1ccsc1)c1sccc1C(=O)O",
    "systemUnderTest": "L1210 leukemia ip in BDF1 mice, survival T/C",
    "result": "87 % of control"
  },
  {
    "compound": "COc1ccccc1NC1=C(NC(=O)Cc2ccccc2)C(=O)c2ccccc2C1=O",
    "systemUnderTest": "L1210 leukemia ip in BDF1 mice, survival T/C",
    "result": "96 % of control"
  },
  {
    "compound": "CC1(C)OC2CS(=O)(=O)CC2O1 (configuration not stated)",
    "systemUnderTest": "L1210 leukemia ip in BDF1 mice, survival T/C",
    "result": "105 % of control"
  },
  {
    "compound": "Nc1ccc2c(c1)Cc1cc(NC(=O)C(F)(F)F)ccc1-2",
    "systemUnderTest": "L1210 leukemia ip in BDF1 mice, survival T/C",
    "result": "96 % of control"
  },
  {
    "compound": "O=C(c1ccccc1)N1CC2CC3OC3c3cccc1c32 (configuration not stated)",
    "systemUnderTest": "L1210 leukemia ip in BDF1 mice, survival T/C",
    "result": "92 % of control"
  }
]

---

# Tested on: L1210 leukemia ip in BDF1 mice, survival T/C
# procedureText: NCI In Vivo Anticancer Drug Screen. Data for tumor model L1210 Leukemia (intraperitoneal) in B6D2F1 (BDF1) mice
# experimentalParameters: endpoint: mean survival time; dose: 200.0 mg/kg/injection; schedule: Q01DX009 (ip); vehicle: Klucel (hydroxypropylcellulose) (HPC); higher = longer survival
Toxic doses and inconclusive results are not listed.
Entries and their measured T/C follow.

[
  {
    "compound": "CCOC(=O)NC(C)(C)CN(CCO)C(=O)OCC",
    "T/C": "97 % of control"
  },
  {
    "compound": "CC(=O)Oc1cc(NC(=O)c2ccccc2)ccc1NC(=O)c1ccccc1",
    "T/C": "90 % of control"
  },
  {
    "compound": "CC1C2c3ccccc3C(c3ccccc32)C1S(=O)(=O)F (configuration not stated)",
    "T/C": "100 % of control"
  },
  {
    "compound": "CCOc1ccc(C2CCCCCC2OS(C)(=O)=O)cc1 (configuration not stated)",
    "T/C": "98 % of control"
  },
  {
    "compound": "O=C(Nc1ccccc1)Oc1ccc(Cl)cc1",
    "T/C": "102 % of control"
  },
  {
    "compound": "CCOC(=O)C(CCC(=O)O)NC(=O)OCc1ccccc1 (configuration not stated)",
    "T/C": "106 % of control"
  },
  {
    "compound": "NC(Cc1cnc(N=Nc2ccc(S(=O)(=O)N(CCCl)CCCl)cc2)[nH]1)C(=O)O (configuration not stated)",
    "T/C": "97 % of control"
  },
  {
    "compound": "CC(=O)N1CN(C(C)=O)CN(C(C)=O)C1",
    "T/C": "92 % of control"
  },
  {
    "compound": "CCOC(=O)c1ccc(N=NN(C)CC(C)C)cc1",
    "T/C": "122 % of control"
  },
  {
    "compound": "O=C(OCCO)c1cc(OCCO)nc(Cl)n1",
    "T/C": "89 % of control"
  },
  {
    "compound": "COc1c(NC(=O)CC(C)=O)cccc1[N+](=O)[O-]",
    "T/C": "101 % of control"
  },
  {
    "compound": "CC1(C)N=C(N)N=C(N)N1c1cccc(/C=C/c2cccc([N+](=O)[O-])c2)c1",
    "T/C": "106 % of control"
  }
]
